Origin of measurements: the Human Domainome abundance scans (Beltran et al. 2025)

Listing of entries alongside the reported abundance fitness.
B1: Pre-mRNA-processing factor 40 homolog B, residues 274 to 332; numbered along this chain, Q6NWY9 (parent)
chain: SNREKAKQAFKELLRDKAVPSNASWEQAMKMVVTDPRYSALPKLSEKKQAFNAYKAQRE

variants of: B1; assay: abundance fitness (aPCA) (normalised: wild type 0, dead -1); higher = more abundant; growth selection in yeast, the domain comes from the species named; conditions: Homo sapiens
property.name: abundance fitness

# variant.name, result
measured = [
    ("Q27V", -0.297),
    ("S39D", -0.068),
    ("A18M", -0.096),
    ("S24V", -0.644),
    ("A9P", -0.536),
    ("K55F", -0.652),
    ("L14H", -0.573),
    ("A53K", -0.174),
    ("K43D", 0.11),
    ("Q57C", -0.156),
    ("K55T", -0.242),
    ("S21D", -0.077),
    ("R58V", 0.085),
    ("A53G", -0.293),
    ("R3A", -0.409),
    ("N52A", -0.09),
    ("V32S", -0.343),
    ("K55W", -0.947),
    ("A6W", -0.948),
    ("R3K", 0.308),
    ("A56F", -0.526),
    ("S21Q", 0.014),
]
